Test system: cGAS activity in THP1 cells (IFNb as marker)
procedure-text: Cellular assay to measure cGAS activity (IFNb production in PMA-differentiated THP1 cells stimulated by RDG-Adenovirus-GFP)
Format: cell-based, human
condition-set: Homo sapiens, THP-1, THP1 cells, PMA differentiated, RDG-Adenovirus-GFP 1000 MOI, IFNb AlphaLISA, overnight incubation; read-out: IC50 (μM), Cellular assay for Compounds 95-348
readout-name: IC50 (µM)

CC(=O)NC1Cc2c(-c3cn[nH]c3)c3ccc(Cl)c(Cl)c3n2C1 (centres unmarked) [Example 155]: 7.68
O=C(Cc1cnccn1)NCc1[nH]c2c(Cl)c(Cl)ccc2c1-c1cn[nH]c1 [Example 112]: 1.56
CC(=O)N(C)CCC(=O)N1CCn2c(c(-c3cn[nH]c3)c3ccc(Cl)c(Cl)c32)C1 [Example 308]: 7.9

(a) C[C@H](O)C(=O)NCc1[nH]c2c(Cl)c(Cl)ccc2c1-c1cn[nH]c1 [Example 168]
(b) OC1Cc2c(-c3cn[nH]c3)c3ccc(Cl)c(Cl)c3n2C1 (centres unmarked) [Example 278]
(c) CN(C)C(=O)CCC(=O)N1CCn2c(c(-c3cn[nH]c3)c3c(OCC#N)cc(Cl)c(Cl)c32)C1 [Example 113]
(d) O=C1COCCN1CCC(=O)N1CCn2c(c(-c3cn[nH]c3)c3ccc(Cl)c(Cl)c32)C1 [Example 304]
Request: Rank ascending by IC50. Respond with the label ranking, as requested.
Result: a, b, c, d

(A) COc1cc2c(-c3cn[nH]c3)cn(-c3cccnn3)c2cc1Cl [Example 341]
(B) CC(=O)NCCS(=O)(=O)NC1CCc2c(-c3cn[nH]c3)c3ccc(Cl)c(Cl)c3n2C1 (centres unmarked) [Example 119]
Request: Lab note: check whether A or B shows the higher recorded IC50. I would appreciate it if you answered with the label of your choice.
Result: B
(B: 3.66 µM, A: 0.8 µM)
